System: NCI-H292 lung cancer cells
METHOD_DESCRIPTION: FDA drug screening, complete media vs cholesterol-free media without statin (TABLE 1)
Assay type: cell-based, human
CONDITIONS: complete vs cholesterol-free media; greater than 0 enhanced anti-cancer activity, about 0 neutral, below 0 antagonists
Here the recorded Difference is given for each entry.
The answer should be written as a number, with no unit following it.

Below, each entry is followed by its recorded Difference result.
MOLECULE: NS(=O)(=O)c1cc2c(cc1Cl)NC(C(Cl)Cl)NS2(=O)=O (stereo not shown) [Trichlormethiazide]
READOUT_NUMBER: −0.40
//
MOLECULE: CC1CCC(C(C)C)C(O)C1 (racemic) [DL-Menthol]
READOUT_NUMBER: −0.41
//
MOLECULE: Cc1cnc(NC(=O)C2=C(O)c3ccccc3S(=O)(=O)N2C)s1 [Meloxicam]
READOUT_NUMBER: −0.39

CCCCC(=O)O[C@H]1CC[C@H]2[C@@H]3CCc4cc(O)ccc4[C@H]3CC[C@]12C [Estradiol valerianate] yielded Difference of −0.40
